assay remarks: chemical genetic growth profiling, strain panel (AID 1159580);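 further: tested at 20 µM; growth read once vehicle control cultures reached saturation at 30 °C; 1 = growth at the plate median or of vehicle wells; lower values mean less growth of the strain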
test parameters: S. cerevisiae strains, growth OD, strain wild type
Out of some 5,500 compounds screened, about 2,000 (36%) were called active. About 18% were inconclusive and are not listed. No stated cut-off is given here; in the data, active means normalized growth mostly below about 0.91 (no sharp cut-off); inconclusive means no clear call, values can overlap the other calls; inactive means mostly above about 0.92. This is one part of the list.
Bench note: report the call from active, inactive

molecule	group label
O=C1CC(Nc2ccccc2)C=C1Nc1ccccc1 (centres undefined)	inactive
CC(C)c1c(O)ccc2c1CCC1C(C)(C)CCC[C@]21C (some centres undefined)	active
CC(C)CC1NC(=O)NC1=O (centres undefined)	inactive

API: the following record is the query input.
stdin: Identify the outcome logged in this assay for the molecule shown: COC(=O)[C@]1(C)CCC[C@]2(C)c3ccc(C(C)C)cc3C(=O)CC12 (some centres undefined)
stdout: inactive

* * *

assay remarks: chemical genetic growth profiling, strain panel (AID 1159580)
test parameters: S. cerevisiae deletion strains, growth OD, locus YBR231C, strain swc5
Out of some 5,500 compounds screened, about 2,000 (36%) were called active. Inconclusive results (about 18%) are left out. Rule as the data show it: active = normalized growth mostly below about 0.91 (no sharp cut-off); inconclusive = no clear call, values can overlap the other calls; inactive = mostly above about 0.92. The list shows a part of the results.
Answer with one of the outcomes active, inactive

See these solved cases before continuing.
compound	group label
CC(CC(C(N)=O)(c1ccccc1)c1ccccc1)N(C)C (centres undefined)	inactive
CCN(Cc1ccncc1)C(=O)C(CO)c1ccccc1 (centres undefined)	inactive
C[C@]12CCC3c4ccc(OS(=O)(=O)O)cc4CCC3C1CC[C@H]2O (some centres undefined)	inactive

# next compound below
stdin: How was O=C(OC1Cc2c(O)cc(O)cc2OC1c1cc(=O)c(O)c2c(O)c(O)cc(C3Oc4cc(O)cc(O)c4CC3O)c2c1)c1cc(O)c(O)c(O)c1 (centres undefined) classified in this test?
stdout: active

* * *

assay remarks: chemical genetic growth profiling, strain panel (AID 1159580)
test parameters: S. cerevisiae deletion strains, growth OD, locus YEL003W, strain gim4, active compounds read low
Hit rate of the full screen: of about 5,500 compounds, about 2,000 (36%) were called active. About 18% were inconclusive and are not listed. The list shows a part of the results.
quantity: normalized growth

// solved cases for normalized growth follow
compound	quantity	observed
O=C1C=C2C(=CCOC2O)O1 (stereo unspecified)	normalized growth	0.659 (active)
NS(=O)(=O)c1cc(C2(O)NC(=O)c3ccccc32)ccc1Cl (stereo unspecified)	normalized growth	0.985 (inactive)
CC(=O)O[C@]1(C(C)=O)CCC2C3C=C(Cl)C4=CC(=O)[C@@H]5C[C@@H]5[C@]4(C)C3CC[C@@]21C (stereo partly specified)	normalized growth	1.02 (inactive)
O=C1[O][Bi][O]c2ccccc21	normalized growth	1.03 (inactive)
CCC(=O)c1c(O)cc(O)cc1O	normalized growth	0.99 (inactive)

Each of the following entries comes with a recorded value; kindly state normalized growth for each.
1. CCOC(=O)c1c(C)cc(OC)cc1O
2. Cc1cc(OC(=O)c2c(C)cc(O)cc2O)cc(O)c1C(=O)O
3. CO[C@@]1(NC(=O)C(C(=O)O)c2ccc(O)cc2)C(=O)N2C(C(=O)O)=C(CSc3nnnn3C)CO[C@@H]21 (stereo partly specified)
4. CCOC(=O)c1c(C)cc(O)cc1O
5. CC1O[C@@H](Oc2c(-c3ccc(O)c(O)c3)oc3cc(O)cc(O)c3c2=O)[C@H](O)[C@H](O)[C@H]1O (stereo partly specified)
6. COC(=O)c1c(C)cc(O)cc1O

stdout:
1. 0.964 (inactive)
2. 0.972 (inactive)
3. 0.99 (inactive)
4. 0.947 (inactive)
5. 0.994 (inactive)
6. 1.01 (inactive)

* * *

So I've got a bunch of compounds here, and I need their normalized growth values.
assay remarks: chemical genetic growth profiling, strain panel (AID 1159580);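 further: tested at 20 µM; growth read once vehicle control cultures reached saturation at 30 °C; 1 = growth at the plate median or of vehicle wells; lower values mean less growth of the strain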
test parameters: S. cerevisiae deletion strains, growth OD, locus YDL035C, strain GPR1, active compounds read low
The campaign covered roughly 5,500 compounds. About 2,000 (36%) were called active. Inconclusive results (about 18%) are left out. The list shows a part of the results.

The following compounds each have a reported value; give each one's normalized growth.
1. COc1ccccc1/C=C\C(=O)O
2. O=c1c(O)c(-c2cc(O)c(O)c(O)c2)oc2cc(O)cc(O)c12
3. CC(C)c1c(O)c(-c2cc3c(c(C(C)C)c2O)CCC2C(C)(C)CCC[C@]32C)cc2c1CCC1C(C)(C)CCC[C@]21C (stereo partly specified)
4. NC(=O)NCCCC(N)C(=O)O (stereo unspecified)

stdout:
1: 1.08 (inactive); 2: 0.972 (inactive); 3: 1.02 (inactive); 4: 1.03 (inactive)

Provide the reported normalized growth of each entry below, same order.
1. CCCCOc1cc(C(=O)NCCN(CC)CC)c2ccccc2n1
2. CCCCCCC(C)OC(=O)COc1ccc(Cl)cc1Cl (stereo unspecified)
3. Oc1cc2c(cc1O)C1c3ccc(O)c(O)c3OCC1(O)C2 (stereo unspecified)
4. CC(=O)Oc1ccc2c(c1OC(C)=O)OCC1(O)Cc3c(cc(OC(C)=O)c(OC(C)=O)c3OC(C)=O)C21 (stereo unspecified)
5. CCCCC1C(=O)N(c2ccccc2)N(c2ccc(O)cc2)C1=O (stereo unspecified)

stdout:
1: 1.03 (inactive); 2: 0.955 (inactive); 3: 0.973 (inactive); 4: 1.01 (inactive); 5: 0.972 (inactive)

Below is a list of compounds. For each, state its recorded normalized growth.
1. CC1=CC(=O)C2=C(C)CC[C@@H]3[C@H](OC(=O)[C@H]3C)[C@@H]12
2. COc1ccc(Cl)cc1C(=O)NCCc1ccc(S(=O)(=O)NC(=O)NC2CCCCC2)cc1

stdout:
0.998 (inactive)
0.973 (inactive)

* * *

assay remarks: chemical genetic growth profiling, strain panel (AID 1159580);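 further: tested at 20 µM; growth read once vehicle control cultures reached saturation at 30 °C; 1 = growth at the plate median or of vehicle wells; lower values mean less growth of the strain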
test parameters: S. cerevisiae deletion strains, growth OD, locus YOL078W, strain AVO1
In all, about 5,500 compounds went through this assay and about 2,000 (36%) were called active. Not shown: some 18% with an inconclusive outcome. No stated cut-off is given here; in the data, active means normalized growth mostly below about 0.91 (no sharp cut-off); inconclusive means no clear call, values can overlap the other calls; inactive means mostly above about 0.92. Some of the results follow.
Respond only with the outcome that fits, drawn from YES = active, NO = inactive

molecule	group label
COc1ccccc1NC(=S)N/N=C\c1ccccc1O	NO
OC1(C(F)(F)F)CC(c2ccc3ccccc3c2)=NN1 (stereo unspecified)	YES
O=C1Nc2ccccc2/C1=C\c1c(Cl)cccc1Cl	NO
O/N=C(/c1ccc(Cl)cc1)c1cc2ccccc2o1	NO
FC(F)(F)c1cccc(NC(=S)NN=C2CCCCCC2)c1	NO
Cc1ccc(NNC(=O)c2cccs2)cc1Cl	NO
CCOC(=O)N/N=C\c1cc(Cl)cc(Cl)c1O	NO
Cc1ccc(C)n1-c1ccc(/C=C2/C(=O)Nc3ccccc32)cc1	NO

stdin: Recorded test call requested for Oc1c(Cl)cc(Cl)cc1/C=N\NC(=S)Nc1cc(C(F)(F)F)cc(C(F)(F)F)c1
stdout: YES

stdin: What did this assay record as the result for c1ccc(-c2nnc(-c3ccccn3)nc2-c2ccccc2)cc1 ?
stdout: YES

stdin: Could you check what this test reported for Oc1c(Br)cc(Br)cc1C=Nc1ccc(Sc2ccccc2)nc1Sc1ccccc1 ?
stdout: NO

stdin: What did this assay record as the result for CCCCNC(=S)N/N=C\c1cc(Cl)cc(Cl)c1O ?
stdout: NO

stdin: Please let me know the test result on file for CC(C)(C)C(=O)NC(=S)N/N=C\c1cc(Cl)cc(Cl)c1O .
stdout: NO

* * *

assay remarks: chemical genetic growth profiling, strain panel (AID 1159580);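 further: tested at 20 µM; growth read once vehicle control cultures reached saturation at 30 °C; 1 = growth at the plate median or of vehicle wells; lower values mean less growth of the strain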
test parameters: S. cerevisiae deletion strains, growth OD, locus YOR316C, strain cot1, active compounds read low
Screen size: about 5,500 compounds; about 2,000 (36%) were called active. Another 18% or so got no clear call; they are omitted. The list shows a part of the results.
quantity: normalized growth
Numbers only.

compound	normalized growth
COC(=O)[C@@]1(C)CCC[C@]2(C)c3ccc(O)c(C(C)C)c3CCC12 (stereo partly drawn)	0.984

For each listed entry, give its normalized growth.
1. Cc1ccccc1OCC(O)CO (stereo not drawn)
2. CCCCC1C(=O)N(c2ccccc2)N(c2ccc(O)cc2)C1=O (stereo not drawn)
3. NS(=O)(=O)c1cc(C2(O)NC(=O)c3ccccc32)ccc1Cl (stereo not drawn)

stdout:
1. 0.992
2. 0.989
3. 1.02

Give one value of normalized growth per listed compound.
1. CC(C)C1COc2cc3oc(=O)ccc3cc2O1 (stereo not drawn)
2. CC(CC(O)C1OC1(C)C)[C@@H]1CCC2(C)C3=CCC4C(C)(C)C(=O)CCC4(C)C3CC[C@@]12C (stereo partly drawn)
3. CCc1cccc(CC)c1N(COC)C(=O)CCl
4. CC/C(=C(/CC)c1ccc(O)cc1)c1ccc(O)cc1
5. C=C(C)[C@H]1COc2cc3oc(=O)ccc3cc2O1
6. COc1ccc(-c2oc3c(CC=C(C)C)c(O[C@@H]4O[C@H](CO)[C@@H](O)[C@H](O)[C@H]4O)cc(O)c3c(=O)c2O[C@@H]2O[C@@H](C)[C@H](O)[C@@H](O)[C@H]2O)cc1

stdout:
1: 0.875; 2: 1.02; 3: 1.03; 4: 1; 5: 0.991; 6: 0.976

Provide normalized growth values for the following items, in order.
1. O=c1c(O)c(-c2cc(O)c(O)c(O)c2)oc2cc(O)cc(O)c12
2. CC(=O)[C@@]1(O)CCC2C3C[C@H](C)C4=CC(=O)C=CC4(C)[C@@]3(F)[C@@H](O)C[C@@]21C (stereo partly drawn)
3. C=C[C@H]1CN2CC[C@H]1C[C@@H]2[C@@H](OC(=O)OCC)c1ccnc2ccc(OC)cc12
4. CC(C)c1c(O)ccc2c1CCC1[C@@](C)(CO)CCC[C@]21C (stereo partly drawn)

stdout:
[1.02, 1.01, 1.02, 0.956]

Value source: PubChem BioAssay AID1159580
